src = ChEMBL document CHEMBL2346571

Molecular target: UniProtKB P21554
Sequence (P21554 whole entry): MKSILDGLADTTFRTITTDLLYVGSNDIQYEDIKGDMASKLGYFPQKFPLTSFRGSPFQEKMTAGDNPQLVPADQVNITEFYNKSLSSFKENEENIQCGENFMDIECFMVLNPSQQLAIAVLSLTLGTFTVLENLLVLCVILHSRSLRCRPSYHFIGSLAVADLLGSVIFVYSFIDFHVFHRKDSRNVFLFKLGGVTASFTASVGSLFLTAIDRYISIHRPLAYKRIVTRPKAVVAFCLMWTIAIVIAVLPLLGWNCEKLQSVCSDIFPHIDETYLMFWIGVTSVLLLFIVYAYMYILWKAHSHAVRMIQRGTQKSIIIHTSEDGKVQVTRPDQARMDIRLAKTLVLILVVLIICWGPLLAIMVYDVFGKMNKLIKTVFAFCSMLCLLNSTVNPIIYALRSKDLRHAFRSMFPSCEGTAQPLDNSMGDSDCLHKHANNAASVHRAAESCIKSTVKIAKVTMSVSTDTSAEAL
observation-type: Ki

Here are 2 molecules together with their reported answers.
CCCCCCCCCCCCCCCCNC(=O)c1nc(-c2ccc(Cl)cc2)n(-c2ccc(Cl)cc2)n1
> 10 µM
CCCCCCCC/C=C\CCCCCCCCNC(=O)c1nn(-c2ccccc2)c(-c2ccccc2)c1C
> 40 µM

Go through the list and state Ki for each entry.
1. CCCCCc1cc(-c2ccccc2)n(-c2ccccc2)n1
2. CCCCCCc1cc(-c2ccc(Cl)cc2)n(-c2ccc(Cl)cc2Cl)n1

Output line:
6.16 µM
> 40 µM

* * *

pKi: −log10 of the molar value.
The listing below reports pKi for molecules tested on Cannabinoid receptor 2 (Homo sapiens, UniProt P34972).
Sequence (P34972 whole entry): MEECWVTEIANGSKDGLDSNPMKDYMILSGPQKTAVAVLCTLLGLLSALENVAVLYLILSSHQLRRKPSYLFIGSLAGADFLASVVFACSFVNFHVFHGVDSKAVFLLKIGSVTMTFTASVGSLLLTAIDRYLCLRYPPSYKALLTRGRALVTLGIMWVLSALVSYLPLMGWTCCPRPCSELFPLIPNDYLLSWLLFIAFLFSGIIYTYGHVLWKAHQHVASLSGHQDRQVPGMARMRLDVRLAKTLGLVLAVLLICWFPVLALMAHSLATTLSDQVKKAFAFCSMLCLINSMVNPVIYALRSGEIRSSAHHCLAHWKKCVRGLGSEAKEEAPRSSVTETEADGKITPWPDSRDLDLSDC

CCCCCCc1cc(-c2ccc(Cl)cc2)n(-c2ccc(Cl)cc2Cl)n1
< 4.40
CCCCCCCC/C=C\CCCCCCCCNC(=O)c1cc(-c2ccccc2)n(-c2ccccc2)n1
< 4.40
O=C(NN1CCCCC1)c1cc(-c2ccccc2)n(-c2ccccc2)n1
4.55
CCCCCCCC/C=C\CCCCCCCCNC(=O)c1nc(-c2ccc(Cl)cc2)n(-c2ccc(Cl)cc2)n1
< 4.40

Go through the list and state pKi for each entry.
1. CCCCCCCCCCCCCCCCNC(=O)c1nn(-c2ccccc2)c(-c2ccccc2)c1C
2. CCCCCCCCCCCCCCCCNC(=O)c1cc(-c2ccccc2)n(-c2ccccc2)n1
3. CCCCCCc1nc(-c2ccc(Cl)cc2)n(-c2ccc(Cl)cc2Cl)n1
4. CCCCCCCCCCCCCCCCNC(=O)c1nc(-c2ccc(Cl)cc2)n(-c2ccc(Cl)cc2)n1
5. CCCCCCCC/C=C\CCCCCCCCNC(=O)c1nn(-c2ccccc2)c(-c2ccccc2)c1C

Output line:
1. < 5.00
2. < 5.00
3. 5.51
4. < 5.00
5. < 4.40
